test: S. cerevisiae RM11-1a growth modifiers, primary screen, strain RM11-1a, OD600, basal, 24 h (AID 1177); conditions: OD600, 24 h, higher = more signal, called active from +8 up or from −8 down;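 also: cultures grown under basal conditions with no added stressor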
// NOT MET strictly below 0.2 in z-score; MET otherwise

| Compound | Classification |
| --- | --- |
| C=CCC(OC(C)=O)[C@@H]1[C@@H](N(Cc2cc3ccccc3o2)C(=O)c2ccc(-c3ccccc3)cc2)c2cc(OCCCO)ccc2N1C(=O)c1ccc(-c2ccccc2)cc1 (stereo partly specified) | MET |
| COCCOC(=O)N1C(=O)[C@@]2(c3cc(C#CC4(O)CCCCCC4)ccc31)[C@H](c1ccccc1OCCO)N1[C@H](c3ccccc3)[C@H](c3ccccc3)OC(=O)[C@H]1[C@@H]2C(=O)Nc1nc2ccccc2s1 | MET |
| Cc1ccc(N2C(=O)c3ccccc3[C@](C)(C(=O)NCC(F)(F)F)[C@@H]2c2ccc(CO)cc2)nc1 | MET |
| Cc1ccc(S[C@]2(C(=O)NCCN3CCOCC3)CC(=O)N(Cc3cc(C(F)(F)F)cc(C(F)(F)F)c3)[C@@H]2c2ccc(CO)cc2)cc1 | NOT MET |
| CC(C)C[C@@H]1NC(=O)[C@H]2C[C@@H](C(=O)NCCCC[N+](C)(C)C)[C@@H](c3cccc(OCCO)c3)N2C1=O | NOT MET |

Could you tell me if the measured z-score of `CCCNC(=O)[C@@]1(Sc2ccc(C)cc2)CC(=O)N(Cc2cc(C(F)(F)F)cc(C(F)(F)F)c2)[C@@H]1c1ccc(CO)cc1I` reaches 0.2 or more?
NOT MET

###

assay: Ring1 mRNA increase in mouse ESCs, confirmation, esBAF inhibitor project, cell-based, mouse ESC, RT-qPCR, cherry-pick (AID 743176); settings: mouse ESC E14, Ring1 mRNA RT-qPCR fold change; Ring1 fold increase; at 7 µM; stronger effect = higher value;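 also: Ring1 transcript normalised to actin housekeeping signal by TaqMan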
Some of the results follow.
Experimental Readout: fold change
I only need the number, thanks.

Study these solved cases before continuing.
| Molecule | Experimental Readout | Value |
| --- | --- | --- |
| Cc1ccc(-c2nc(COC(=O)c3c(C)noc3C)cs2)cc1 | fold change | 1.44 |
| C/C(=C\C(=O)c1cccnc1)Nc1ccc(C)c(C)c1 | fold change | 1.22 |
| COc1ccc(-c2csc(Nc3cccc(C)n3)n2)cc1OC | fold change | 1.32 |
| O=C(c1ccc(Cl)cc1)c1cnc(Nc2ccccc2)s1 | fold change | 1.37 |
| CC(Cc1cccs1)NC(=O)c1cccc(Cl)c1 (configuration not stated) | fold change | 1.11 |
| COc1ccc(CNC(=O)COc2ccccc2C(=O)c2cnn(-c3ccccc3)c2)cc1OC | fold change | 1.09 |

Looking up COc1ccc(C2=Nc3ccccc3NC(=O)C2N(C(=O)c2cc3ccccc3[nH]2)c2ccccc2)cc1 (configuration not stated) , I found its fold change recorded as 1.31

Lab book: fold change of `COc1ccc(Nc2ccc3ccccc3c2)cc1` noted as 1.4

Measured fold change, `O=C(c1noc2c1CCCC2)N1CCc2ccccc2C1` : 1.38

The measured fold change associated with `O=C(NN=Cc1ccc2c(c1)CCC2)c1ccccc1O` reads 1.13

Reported fold change of `O=C(c1cc(-c2ccc(Cl)cc2)on1)N1CCN(c2ccccc2)CC1` : 1.25

`COc1cc2ccccc2cc1C(=O)Nc1ccncc1` has a reported fold change of 1.36

###

test: MM1S cell viability effects, profiling panel, calcein-AM fluorescence, 48 h, basal (AID 1165); conditions: higher = more signal;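 also: viability of MM1S multiple myeloma cells under basal unstimulated conditions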
Experimental Readout: z-score
Could you keep your reply to the number by itself?

Some molecules with recorded z-score:
| Smiles Representation | z-score |
| --- | --- |
| CC(C)(C)OC(=O)CC[C@@]12N=C(c3ccc(OCCCO)cc3)O[C@@H]1c1ccccc1CN(Cc1ccccc1)C2=O | -3.12 |
| C=CCNC(=O)[C@H]1[C@@H]2C(=O)O[C@@H](c3ccccc3)[C@@H](c3ccccc3)N2[C@@H](c2ccc(OCCO)cc2)[C@]12C(=O)Nc1ccc(C#CCCO)cc12 | 0.416 |

Okay, next one:
In plain terms, `C=CCNC(=O)[C@@H]1[C@H]2C(=O)O[C@H](c3ccccc3)[C@H](c3ccccc3)N2[C@H](c2ccc(O)cc2)[C@@]12C(=O)N(C(=O)OCCOC)c1ccc(C#Cc3ccc(OC)cc3)cc12` has a documented z-score of -1.58

###

biological target: Melanocortin receptor 4 (Homo sapiens); assay: MC4R antagonists, dose response, counter-screen for LGR2 antagonist project, cell-based, plate reader, cherry pick (AID 743444); conditions: MC4R-expressing cells, antagonist mode; series mostly up to 35 µM
Measured potencies and affinities stand elsewhere. Calls of active or inactive are those of the source. No rule for the calls is given here.
Experimental Readout: outcome

| Molecule | Value |
| --- | --- |
| C[C@H](CO)N1C[C@H](C)[C@H](CN(C)C(=O)Nc2ccccc2)OCCCC[C@H](C)Oc2ccc(NC(=O)C3CCCCC3)cc2C1=O | inactive |
| Cc1ccc(S(=O)(=O)N(C)C[C@H]2Oc3cc(Br)ccc3S(=O)(=O)N([C@H](C)CO)C[C@H]2C)cc1 | inactive |
| C[C@H](CO)N1C[C@H](C)[C@H](CN(C)C(=O)Nc2ccc(C(F)(F)F)cc2)OCCCC[C@H](C)Oc2ccc(NC(=O)CCC(F)(F)F)cc2C1=O | inactive |
| CC(C)(C)NC(=O)c1cccc(NC(=O)c2ccc3c(c2)C(=O)N(C(C)(C)C)C3=O)c1 | inactive |
| C[C@H](CO)N1C[C@H](C)[C@H](CN(C)C(=O)Nc2cccc3ccccc23)OCCCC[C@H](C)Oc2ccc(NC(=O)C3CCCCC3)cc2C1=O | inactive |
| O=C(NCc1ccc(F)cc1)c1cc(C2CCCCN2S(=O)(=O)c2cccs2)on1 (stereo not given) | inactive |

Record `COc1ccc2c3c([nH]c2c1)[C@H](CO)N(C(C)=O)CC31CCN(C(=O)CN2CCOCC2)CC1` , field outcome: inactive

`CO[C@H]1CN(C)C(=O)c2ccc(NC(=O)c3ccc(-c4ccccc4)cc3)cc2OC[C@@H](C)NC[C@@H]1C` has a reported outcome of inactive

outcome for `CCc1nnc(NC(=O)CSc2nnc3ncccn23)s1` is inactive

For CC(C)c1ccc2c(c1)C(N1CCNCC1)Cc1ccc(F)cc1S2 (stereo not given) the molecule record lists outcome as inactive

###

experiment: small-molecule microarray binders of probe aWnt5a, primary screen, biochemical, biotinylated probe, 635/667 nm fluorescence (AID 1113); details: higher = more signal;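 also: score merges 667 nm fluorescence intensity with signal-to-noise per printed feature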
Listed below: composite z-score values for each entry.
Please give the numeric answer without any surrounding text.

| Molecule | Value |
| --- | --- |
| NCCCCCCNC(=O)[C@@H]1C[C@@H]2C(=O)N[C@@H](Cc3ccccc3)C(=O)N2[C@@H]1c1ccc(O)cc1 | -0.11 |
| O=C1N(CCS(=O)(=O)c2ccccc2)Cc2ccccc2[C@@H]2OC(c3ccc(OCCCO)cc3)=N[C@]12Cc1ccccc1 | 0.0614 |
| CC(C)(C)OC(=O)CC[C@]1(C(=O)NCc2ccccc2)N=C(c2ccc(OCCCO)cc2)O[C@H]1c1ccccc1N=[N+]=[N-] | 0.17 |

For CC(C)C[C@@H]1NC(=O)[C@@]23C(=O)N[C@@H](Cc4ccccc4)C2[C@H](C)[C@@]2(C)O[C@H]2C3/C=C/CC/C=C/CNC(=O)[C@@H](C)NC1=O (some centres undefined) the molecule record lists composite z-score as -0.154

###

biological target: Homeobox protein Hox-A13 (Mus musculus) (UniProt Q62424); experiment: inhibitors of HoxA13-DNA binding, primary screen, biochemical, fluorescence polarization, labeled oligonucleotide (AID 1185); settings: 15 min, called active from +8 up or from −8 down
Sequence (Q62424 whole entry, looked up): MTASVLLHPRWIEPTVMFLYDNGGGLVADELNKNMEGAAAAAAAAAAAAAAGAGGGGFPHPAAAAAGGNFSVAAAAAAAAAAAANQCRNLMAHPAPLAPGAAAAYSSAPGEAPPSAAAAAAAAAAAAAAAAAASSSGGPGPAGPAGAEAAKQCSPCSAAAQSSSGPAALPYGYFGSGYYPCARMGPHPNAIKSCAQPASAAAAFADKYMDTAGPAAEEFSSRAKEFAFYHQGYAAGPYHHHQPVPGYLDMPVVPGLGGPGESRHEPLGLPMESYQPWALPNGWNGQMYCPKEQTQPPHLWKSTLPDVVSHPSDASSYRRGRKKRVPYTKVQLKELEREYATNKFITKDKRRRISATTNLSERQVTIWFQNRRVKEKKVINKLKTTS
The source made the active and inactive calls.
Can you answer with just one of these options? TRUE (active), FALSE (inactive)

Hi team, can someone confirm the assay call for `COc1ccc(C#Cc2ccc3c(c2)[C@]2(C(=O)N3)[C@H](c3ccc(O)cc3)N3[C@H](c4ccccc4)[C@H](c4ccccc4)OC(=O)[C@H]3[C@@H]2C(=O)N2CCN(c3ncccn3)CC2)cc1` ?
FALSE

Please share the test call associated with `C=CCN1C(=O)[C@@]2(O[C@@H](CCO)[C@H]([Si](C)(C)c3ccc(OC)cc3)[C@H]2C)c2cc(N3C(=O)c4cccc5cccc3c45)ccc21` .
FALSE

Outcome? `COCCCN1C(=O)[C@@]2(Cc3ccccc31)c1ccccc1C(=O)N(Cc1ccccc1Cl)[C@H]2c1ccc(CO)cc1`
FALSE

Recorded test call requested for CCCCCN1CC=CC23O[C@@H]4/C=C\CCC(C)OC(=O)C4[C@H]2C(=O)N(CCO)[C@@H]3C1=O (some centres not stated)
FALSE

I would be grateful if you could indicate the recorded call for `C=C(C(=O)CC[C@@H](OC(C)=O)c1ccccc1OCCO)C(C)C` .
FALSE

Hi, do you know how COC(=O)C1=CC(c2ccc(CO)cc2)=CC(C2CC2)N(C)C=C1C(=O)OC (configuration not stated) came out in this test?
TRUE

What call does the record list for `COCCOC(=O)N1C(=O)[C@@]2(c3ccccc31)[C@H](C(=O)Nc1nc3ccccc3s1)[C@H]1C(=O)O[C@H](c3ccccc3)[C@H](c3ccccc3)N1[C@@H]2c1ccc(O)cc1` ?
FALSE
